Listing of entries alongside the reported growth.
System: SNB-19 CNS
Experiment: NCI-60 one-dose screen, 48 h (100 = growth as untreated, 0 = no growth, -100 = all killed)
Settings: 10 µM unless noted
This is part of a sample that, as a whole, favours compounds with a hit. Of some 83,000 tested, about 20% had one in any assay.
Give the quantity in %, number only.

Guide cases for growth, answers given:
compound | assay value
C=C(C)[C@@H]1CC[C@]2(C(=O)NCC#CCN3CCN(C)CC3)CC[C@]3(C)[C@H](CC[C@@H]4[C@@](C)(CCC#N)[C@H](C(=C)C)CC[C@]43C)[C@@H]12 | 78.2
Nc1nc(=S)c2ncn(C3OC(COP(=O)(O)O)C(O)C3O)c2[nH]1 (stereo not drawn) | 96.1
COC(=O)c1cc(-c2ccc(OC)cc2)[nH]c1N/N=C/c1c(Cl)cccc1Cl | 19.1
COC(=O)[C@H]1CCCN1C[C@@H](O)CN1C(=O)/C(=C\c2cc(OC)c(OC)c(OC)c2)c2ccccc21 | 95.9
COc1ccc(-c2nc3c(c(-c4ccccc4)nn3-c3ccccc3)c(-c3ccc(N4CCOCC4)cc3)c2C#N)cc1 | 103

Please report growth for the following compound: "O=Cc1ccc([N+](=O)[O-])s1" 91.4

Please report growth for the following compound: "CC1(C)c2[nH]c3ccccc3c2C[C@]2(C)[C@H]3CC=C4[C@@H]5C[C@@](C)(C(N)=O)CC[C@]5(C)CC[C@@]4(C)[C@]3(C)CC[C@@H]12" 62.2

Please report growth for the following compound: "O=C(c1ccc(Cl)cc1)N1CCN(c2ccnc3cc(Cl)ccc23)CC1" 84.2
